Measured PXC50 of individual entries
# target_desc: Methionyl-tRNA synthetase, putative (Leishmania donovani (strain BPK282A1)) (UniProt E9BF75)
# Sequence (E9BF75 as listed by the source): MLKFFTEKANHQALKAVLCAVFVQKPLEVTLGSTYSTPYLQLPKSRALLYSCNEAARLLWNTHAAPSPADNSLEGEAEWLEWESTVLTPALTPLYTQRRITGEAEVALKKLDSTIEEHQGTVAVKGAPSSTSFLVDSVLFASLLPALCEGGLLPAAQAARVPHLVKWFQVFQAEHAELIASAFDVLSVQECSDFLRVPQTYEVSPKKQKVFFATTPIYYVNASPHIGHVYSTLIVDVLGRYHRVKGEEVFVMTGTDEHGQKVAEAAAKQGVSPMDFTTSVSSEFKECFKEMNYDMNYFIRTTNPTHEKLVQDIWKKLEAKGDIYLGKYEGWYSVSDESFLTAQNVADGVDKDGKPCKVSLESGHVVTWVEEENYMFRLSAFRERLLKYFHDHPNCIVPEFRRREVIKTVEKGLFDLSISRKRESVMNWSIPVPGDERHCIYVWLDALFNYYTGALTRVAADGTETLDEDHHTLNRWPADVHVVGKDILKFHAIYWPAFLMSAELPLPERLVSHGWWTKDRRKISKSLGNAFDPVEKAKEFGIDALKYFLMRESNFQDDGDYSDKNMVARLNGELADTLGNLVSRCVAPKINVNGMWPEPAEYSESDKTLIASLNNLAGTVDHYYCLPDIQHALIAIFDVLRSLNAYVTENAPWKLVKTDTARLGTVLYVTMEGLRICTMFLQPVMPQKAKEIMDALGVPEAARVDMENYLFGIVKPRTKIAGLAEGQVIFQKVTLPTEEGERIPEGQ
# assay_details: Leishmania donovani Methionine tRNA synthetase (LdMetRS):v7. Dose response assay
# Assay type: functional
# Set-up: conc 80 nM, time 150 minutes
# test_conditions: MAX_EFFECT 7.808564232

[
  {
    "smiles_string": "Cc1sc2nc(-c3cccs3)nc(N(C)CC(=O)NC3CC3)c2c1C",
    "PXC50": "< 4"
  },
  {
    "smiles_string": "Cc1nc(NCCCO)c2c(-c3cccs3)csc2n1",
    "PXC50": "< 4"
  },
  {
    "smiles_string": "Cc1nc(NCCCN2CCC(O)CC2)c2c(-c3cccs3)csc2n1",
    "PXC50": "< 4"
  },
  {
    "smiles_string": "COC(=O)CCNc1nc(CN2CCCCC2)nc2sc3c(c12)CCC3",
    "PXC50": "< 4.31"
  }
]
